Details: in isopropanol, 308.15 K

| Compound Structure String | solubility (mole fraction) |
| --- | --- |
| COC(=O)c1cccc(C(=O)OC)n1 | 0.0032 |

====

Conditions: in isopropyl acetate, 298.15 K

| Compound Structure String | solubility (mole fraction) |
| --- | --- |
| COC(=O)c1cccc(C(=O)OC)n1 | 0.00721 |

====

Settings: in ethyl acetate, 318.15 K

| Compound Structure String | solubility (mole fraction) |
| --- | --- |
| COC(=O)c1cccc(C(=O)OC)n1 | 0.0326 |

====

Settings: in ethanol, 313.15 K
Readout Kind: solubility (mole fraction)

| Compound Structure String | Readout Kind | Experimental Result |
| --- | --- | --- |
| COC(=O)c1cccc(C(=O)OC)n1 | solubility (mole fraction) | 0.00576 |

====

Conditions: in isopropanol, 318.15 K

| Compound Structure String | solubility (mole fraction) |
| --- | --- |
| COC(=O)c1cccc(C(=O)OC)n1 | 0.00579 |

====

Settings: in n-pentyl acetate, 298.15 K

| Compound Structure String | solubility (mole fraction) |
| --- | --- |
| COC(=O)c1cccc(C(=O)OC)n1 | 0.00625 |

====

Conditions: in n-butyl acetate, 308.15 K

| Compound Structure String | solubility (mole fraction) |
| --- | --- |
| COC(=O)c1cccc(C(=O)OC)n1 | 0.0113 |

====

Settings: in n-pentyl acetate, 288.15 K

| Compound Structure String | solubility (mole fraction) |
| --- | --- |
| COC(=O)c1cccc(C(=O)OC)n1 | 0.0038 |

====

Details: in DMSO, 308.15 K

| Compound Structure String | solubility (mole fraction) |
| --- | --- |
| COC(=O)c1cccc(C(=O)OC)n1 | 0.0323 |

====

Settings: in methyl acetate, 313.15 K

| Compound Structure String | solubility (mole fraction) |
| --- | --- |
| COC(=O)c1cccc(C(=O)OC)n1 | 0.041 |

====

Settings: in THF, 283.15 K

| Compound Structure String | solubility (mole fraction) |
| --- | --- |
| COC(=O)c1cccc(C(=O)OC)n1 | 0.00773 |

====

Conditions: in ethanol, 293.15 K

| Compound Structure String | solubility (mole fraction) |
| --- | --- |
| COC(=O)c1cccc(C(=O)OC)n1 | 0.00147 |

====

Conditions: in n-butyl acetate, 283.15 K

| Compound Structure String | solubility (mole fraction) |
| --- | --- |
| COC(=O)c1cccc(C(=O)OC)n1 | 0.00203 |

====

Conditions: in isopropanol, 288.15 K

| Compound Structure String | solubility (mole fraction) |
| --- | --- |
| COC(=O)c1cccc(C(=O)OC)n1 | 0.00071 |

====

Conditions: in ethyl acetate, 278.15 K
Readout Kind: solubility (mole fraction)

| Compound Structure String | Experimental Result |
| --- | --- |
| COC(=O)c1cccc(C(=O)OC)n1 | 0.00335 |

====

Details: in isopentyl acetate, 293.15 K

| Compound Structure String | solubility (mole fraction) |
| --- | --- |
| COC(=O)c1cccc(C(=O)OC)n1 | 0.00334 |

====

Conditions: in methanol, 283.15 K
Readout Kind: solubility (mole fraction)

| Compound Structure String | Experimental Result |
| --- | --- |
| COC(=O)c1cccc(C(=O)OC)n1 | 0.00092 |

====

Conditions: in methyl acetate, 318.15 K
Readout Kind: solubility (mole fraction)

| Compound Structure String | Experimental Result |
| --- | --- |
| COC(=O)c1cccc(C(=O)OC)n1 | 0.0489 |

====

Conditions: in isopentyl acetate, 323.15 K

| Compound Structure String | solubility (mole fraction) |
| --- | --- |
| COC(=O)c1cccc(C(=O)OC)n1 | 0.0216 |

====

Conditions: in n-pentyl acetate, 308.15 K

| Compound Structure String | solubility (mole fraction) |
| --- | --- |
| COC(=O)c1cccc(C(=O)OC)n1 | 0.0111 |

====

Settings: in isopropanol, 298.15 K

| Compound Structure String | solubility (mole fraction) |
| --- | --- |
| COC(=O)c1cccc(C(=O)OC)n1 | 0.0017 |

====

Conditions: in isopentyl acetate, 298.15 K
Readout Kind: solubility (mole fraction)

| Compound Structure String | Experimental Result |
| --- | --- |
| COC(=O)c1cccc(C(=O)OC)n1 | 0.00438 |

====

Conditions: in isopropyl acetate, 318.15 K
Readout Kind: solubility (mole fraction)

| Compound Structure String | Readout Kind | Experimental Result |
| --- | --- | --- |
| COC(=O)c1cccc(C(=O)OC)n1 | solubility (mole fraction) | 0.0202 |

====

Details: in methanol, 323.15 K

| Compound Structure String | solubility (mole fraction) |
| --- | --- |
| COC(=O)c1cccc(C(=O)OC)n1 | 0.012 |

====

Details: in methanol, 278.15 K
Readout Kind: solubility (mole fraction)

| Compound Structure String | Experimental Result |
| --- | --- |
| COC(=O)c1cccc(C(=O)OC)n1 | 0.00057 |

====

Settings: in isopropanol, 278.15 K

| Compound Structure String | solubility (mole fraction) |
| --- | --- |
| COC(=O)c1cccc(C(=O)OC)n1 | 0.00032 |

====

Conditions: in n-propanol, 303.15 K

| Compound Structure String | solubility (mole fraction) |
| --- | --- |
| COC(=O)c1cccc(C(=O)OC)n1 | 0.00228 |

====

Conditions: in methyl acetate, 283.15 K
Readout Kind: solubility (mole fraction)

| Compound Structure String | Experimental Result |
| --- | --- |
| COC(=O)c1cccc(C(=O)OC)n1 | 0.00759 |

====

Settings: in isopropanol, 293.15 K

| Compound Structure String | solubility (mole fraction) |
| --- | --- |
| COC(=O)c1cccc(C(=O)OC)n1 | 0.00116 |

====

Conditions: in DMSO, 293.15 K

| Compound Structure String | solubility (mole fraction) |
| --- | --- |
| COC(=O)c1cccc(C(=O)OC)n1 | 0.0174 |

====

Settings: in n-propanol, 293.15 K

| Compound Structure String | solubility (mole fraction) |
| --- | --- |
| COC(=O)c1cccc(C(=O)OC)n1 | 0.0011 |

====

Details: in THF, 318.15 K

| Compound Structure String | solubility (mole fraction) |
| --- | --- |
| COC(=O)c1cccc(C(=O)OC)n1 | 0.0373 |

====

Conditions: in n-propanol, 278.15 K
Readout Kind: solubility (mole fraction)

| Compound Structure String | Readout Kind | Experimental Result |
| --- | --- | --- |
| COC(=O)c1cccc(C(=O)OC)n1 | solubility (mole fraction) | 0.00032 |

====

Settings: in methyl acetate, 303.15 K

| Compound Structure String | solubility (mole fraction) |
| --- | --- |
| COC(=O)c1cccc(C(=O)OC)n1 | 0.0255 |

====

Details: in methanol, 293.15 K
Readout Kind: solubility (mole fraction)

| Compound Structure String | Readout Kind | Experimental Result |
| --- | --- | --- |
| COC(=O)c1cccc(C(=O)OC)n1 | solubility (mole fraction) | 0.00199 |

====

Settings: in isopropanol, 313.15 K

| Compound Structure String | solubility (mole fraction) |
| --- | --- |
| COC(=O)c1cccc(C(=O)OC)n1 | 0.00414 |

====

Details: in n-butyl acetate, 303.15 K

| Compound Structure String | solubility (mole fraction) |
| --- | --- |
| COC(=O)c1cccc(C(=O)OC)n1 | 0.00883 |

====

Details: in THF, 303.15 K

| Compound Structure String | solubility (mole fraction) |
| --- | --- |
| COC(=O)c1cccc(C(=O)OC)n1 | 0.0166 |

====

Conditions: in n-propanol, 318.15 K

| Compound Structure String | solubility (mole fraction) |
| --- | --- |
| COC(=O)c1cccc(C(=O)OC)n1 | 0.00621 |

====

Settings: in n-propanol, 313.15 K
Readout Kind: solubility (mole fraction)

| Compound Structure String | Experimental Result |
| --- | --- |
| COC(=O)c1cccc(C(=O)OC)n1 | 0.00476 |

====

Conditions: in DMSO, 298.15 K

| Compound Structure String | solubility (mole fraction) |
| --- | --- |
| COC(=O)c1cccc(C(=O)OC)n1 | 0.0205 |

====

Conditions: in methyl acetate, 293.15 K
Readout Kind: solubility (mole fraction)

| Compound Structure String | Experimental Result |
| --- | --- |
| COC(=O)c1cccc(C(=O)OC)n1 | 0.0145 |

====

Conditions: in THF, 293.15 K
Readout Kind: solubility (mole fraction)

| Compound Structure String | Experimental Result |
| --- | --- |
| COC(=O)c1cccc(C(=O)OC)n1 | 0.0115 |
